biological target: ALK (Homo sapiens, UniProt Q9UM73); assay: ALK kinase assay (Kinase-Glo / AlphaScreen, purified NPM-ALK); assay type: biochemical; parameters: fused to the complete intracytoplasmic portion of ALK containing the functional tyrosine kinase domain; 6xHis; made in house; host or cells: insect cells; the other entry of the earlier key: NPM1 (P06748, Nucleophosmin); conditions: Table 1; read-out: ALK IC50;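 further: recombinant baculovirus-expressed ALK kinase domain, activity read either as leftover ATP by Kinase-Glo luminescence or as poly(Glu-Tyr) phosphorylation by anti-phosphotyrosine AlphaScreen proximity signal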
Sequence (Q9UM73 with tags, fused parts or gaps): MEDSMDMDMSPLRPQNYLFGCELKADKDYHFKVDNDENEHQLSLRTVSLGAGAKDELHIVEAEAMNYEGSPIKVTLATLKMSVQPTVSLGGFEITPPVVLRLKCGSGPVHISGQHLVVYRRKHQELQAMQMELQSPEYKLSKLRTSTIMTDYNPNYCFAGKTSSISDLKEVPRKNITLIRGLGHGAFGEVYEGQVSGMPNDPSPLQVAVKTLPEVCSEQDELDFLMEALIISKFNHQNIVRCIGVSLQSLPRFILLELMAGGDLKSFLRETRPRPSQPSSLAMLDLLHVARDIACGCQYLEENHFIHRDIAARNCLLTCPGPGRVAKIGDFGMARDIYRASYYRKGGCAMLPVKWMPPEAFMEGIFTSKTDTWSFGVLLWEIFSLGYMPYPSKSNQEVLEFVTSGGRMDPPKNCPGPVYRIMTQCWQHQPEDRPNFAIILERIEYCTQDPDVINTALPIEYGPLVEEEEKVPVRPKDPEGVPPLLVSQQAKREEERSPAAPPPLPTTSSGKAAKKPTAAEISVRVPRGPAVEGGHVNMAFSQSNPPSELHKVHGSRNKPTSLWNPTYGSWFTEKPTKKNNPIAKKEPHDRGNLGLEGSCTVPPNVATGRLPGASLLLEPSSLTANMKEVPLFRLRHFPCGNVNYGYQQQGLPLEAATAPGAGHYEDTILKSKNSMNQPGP
pIC50: −log10 of the molar value.
result.type: pIC50

Take a look at these entries with their results.
- molecule: "Cc1cccc(C)c1C[C@H](C)Nc1cc[nH]c(=O)c1-c1nc2cc3c(cc2[nH]1)C(=O)N(CCN1CCCC1)C3"
  pIC50: "7.00 to 8.00"
- molecule: "C[C@@H](Cc1sccc1Cl)Nc1cc[nH]c(=O)c1-c1nc2cc3c(cc2[nH]1)C(=O)N([C@@H](C)CN(C)C)C3"
  pIC50: "7.00 to 8.00"

Inquiry: For the molecule C[C@H](Cc1cccs1)Nc1cc[nH]c(=O)c1-c1nc2c(Cl)c3c(cc2[nH]1)C(=O)N(C1CCN(C)CC1)C3=O , what pIC50 is on record?
Reply text: < 6.00

Inquiry: Return reported pIC50; argument: COc1ccsc1C[C@H](C)Nc1cc[nH]c(=O)c1-c1nc2cc3c(cc2[nH]1)CN(CCCN1CCCC1)C3=O
Reply text: 6.00 to 6.60

Inquiry: Value lookup for pIC50; key = C[C@H](Cc1cccs1)Nc1cc[nH]c(=O)c1-c1nc2cc3c(cc2[nH]1)C(=O)N(CCCN1CCCC1)C3
Reply text: < 6.00

Inquiry: If you can, please state the reported pIC50 value of C[C@H](Nc1cc[nH]c(=O)c1-c1nc2cc3c(cc2[nH]1)C(=O)N(CCCN1CCCC1)C3=O)[C@H](O)c1ccccc1 .
Reply text: 6.60 to 7.00

* * *

Quick reference for IC50 among some compounds
biological target: IGF1R (Homo sapiens); construct: 6×His- or GST-tagged kinase domain fragments of the corresponding RTKs expressed in baculovirus system; host or cells: baculovirus system; experiment: IGF1R kinase assay; type: biochemical; details: Table 1; read-out: IGF1R IC50
Sequence (P08069 999-1274 limits assumed): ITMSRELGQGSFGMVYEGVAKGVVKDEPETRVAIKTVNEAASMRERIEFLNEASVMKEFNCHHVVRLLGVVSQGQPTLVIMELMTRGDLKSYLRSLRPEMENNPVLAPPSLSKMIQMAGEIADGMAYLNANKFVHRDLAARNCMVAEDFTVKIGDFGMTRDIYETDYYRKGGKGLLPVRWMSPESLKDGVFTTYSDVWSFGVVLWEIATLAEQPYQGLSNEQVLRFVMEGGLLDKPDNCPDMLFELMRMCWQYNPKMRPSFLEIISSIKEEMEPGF

- compound: "C[C@@H]1CCCN1CCN1Cc2cc3[nH]c(-c4c(N[C@@H](C)Cc5cc(F)cc(F)c5F)cc[nH]c4=O)nc3cc2C1=O [drawing 340]"
  measured: "> 1 µM"
- compound: "Cc1ccc(F)cc1C[C@H](C)Nc1cc[nH]c(=O)c1-c1nc2cc3c(cc2[nH]1)CN(CCN1CCC[C@H]1C)C3=O [drawing 339]"
  measured: "> 1 µM"
- compound: "CN1CCC(N2C(=O)c3cc4nc(-c5c(N[C@@H](CO)Cc6ccccc6)cc[nH]c5=O)[nH]c4cc3C2=O)CC1"
  measured: "> 1 µM"
- compound: "Cc1cc(F)ccc1C[C@H](C)Nc1cc[nH]c(=O)c1-c1nc2cc3c(cc2[nH]1)C(=O)N(CCN1CCCC1)C3"
  measured: "> 1 µM"

Now for a further compound.
Inquiry: Give recorded IC50 with IGF1R (Homo sapiens) for the following compound: C[C@@H](Cc1cccs1)Nc1cc[nH]c(=O)c1-c1nc2cc3c(cc2[nH]1)C(=O)N(CCN1CCCC1)C3
Reply text: 0.25 to 1 µM

* * *

target: ALK (Homo sapiens); test: ALK kinase assay (Kinase-Glo / AlphaScreen, purified NPM-ALK); type: biochemical; parameters: fused to the complete intracytoplasmic portion of ALK containing the functional tyrosine kinase domain; 6xHis; made in house; host or cells: insect cells; the other entry of the earlier key: NPM1 (P06748, Nucleophosmin); settings: Table 1; read-out: ALK IC50
pIC50: −log10 of the molar value.
Examples of molecules with documented pIC50 follow.

Inquiry: Returns the measured pIC50 for the input molecule. Input: Cc1ccc(Cl)cc1C[C@H](C)Nc1cc[nH]c(=O)c1-c1nc2cc3c(cc2[nH]1)CN(CCN1CCCC1)C3=O
Reply text: 6.00 to 6.60

Inquiry: Return reported pIC50; argument: C[C@@H](Cc1cc(F)cc(F)c1F)Nc1cc[nH]c(=O)c1-c1nc2cc3c(cc2[nH]1)CN(CCN1CCCC1)C3=O [drawing 327]
Reply text: 7.00 to 8.00

Inquiry: Please report the recorded pIC50 for COc1ccc(OC)c(C[C@H](C)Nc2cc[nH]c(=O)c2-c2nc3cc4c(cc3[nH]2)CN(CCN2CCCC2)C4=O)c1 .
Reply text: 6.60 to 7.00

Inquiry: Fill blank: measured pIC50 of the molecule C[C@@H](Cc1cccs1)Nc1cc[nH]c(=O)c1-c1nc2cc3c(cc2[nH]1)C(=O)N(CCCN1CCCC1)C3=O is ____.
Reply text: 6.60 to 7.00

Inquiry: Returns the measured pIC50 for the input molecule. Input: C[C@@H](Cc1cccs1)Nc1cc[nH]c(=O)c1-c1nc2cc3c(cc2[nH]1)C(=O)N(CCCCN1CCCC1)C3
Reply text: 6.60 to 7.00

Inquiry: For the molecule shown here, Cc1ccsc1C[C@H](C)Nc1cc[nH]c(=O)c1-c1nc2cc3c(cc2[nH]1)C(=O)N(CC(C)CN1CCCC1)C3 (stereo partly drawn) , give the reported pIC50.
Reply text: 7.00 to 8.00

Inquiry: What value of pIC50 has been reported for the following molecule? C[C@@H](Cc1cccs1)Nc1cc[nH]c(=O)c1-c1nc2cc3c(cc2[nH]1)C(=O)N(C1CCN(CCS(C)(=O)=O)CC1)C3
Reply text: 6.60 to 7.00

Inquiry: Consider the molecule shown here: COc1ccc(-c2ccc(CC(C)Nc3cc[nH]c(=O)c3-c3nc4cc5c(cc4[nH]3)C(=O)N(CCCN3CCCC3)C5)s2)cc1 (stereo not drawn) What is its recorded pIC50?
Reply text: < 6.00

Inquiry: Sample CC(Cc1ccc(Cl)s1)Nc1cc[nH]c(=O)c1-c1nc2cc3c(cc2[nH]1)C(=O)N(CCCN1CCCC1)C3 (stereo not drawn) — what was its pIC50?
Reply text: 6.00 to 6.60

* * *

assay: Pharmacokinetics study in CD-1 mice (IV, PO); assay type: in vivo; conditions: CD-1, mouse, plasma, iv, 1 mg/kg, IV 1 mg/kg, time point 0.35, Mean
result.type: concentration at […] (ng/mL)
Numeric answer only, unit ng/mL assumed.

Inquiry: Any idea what its concentration at […] is? The molecule is Cc1ccc(F)cc1C[C@H](C)Nc1cc[nH]c(=O)c1-c1nc2cc3c(cc2[nH]1)C(=O)N(CCN1CCCC1)C3 [compound (II)]
Reply text: 74

* * *

experiment: Liver microsome stability, Mouse LM-P1 / MLM; type: in vitro ADME; settings: Table 3A, mouse liver microsomes; read-out: CL MLM
result.type: CLint scaled (L/h/kg)

- compound: "Cc1ccc(F)cc1C[C@H](C)Nc1cc[nH]c(=O)c1-c1nc2cc3c(cc2[nH]1)C(=O)N(CCN1CCCC1)C3 [drawing 360]"
  measured: 3.17

a: Cc1ccc(F)cc1C[C@H](C)Nc1cc[nH]c(=O)c1-c1nc2cc3c(cc2[nH]1)CN(CCN(C)C)C3=O [drawing 361]
b: C[C@@H](Cc1c(F)c(F)cc(F)c1F)Nc1cc[nH]c(=O)c1-c1nc2cc3c(cc2[nH]1)CN(CCN(C)C)C3=O
Inquiry: Param metric = CLint scaled; output whichever of a , b has the minimum value. Your answer should be the label attached to the chosen record.
Reply text: a
(a: 2.76 L/h/kg, b: 4.93 L/h/kg)

* * *

biological target: CYP1A2 (Homo sapiens, UniProt P05177); construct: purchased Cerep (contract assay, ADMET Study 13170); experiment: CYP1A2 Inhibition (recombinant, CEC substrate); assay type: in vitro ADME; conditions: recombinant CYP1A2, probe CEC, 1.0E−06 M; Table 5B individual results; read-out: CYP1A2 % Inhibition of Control Values, 1st/2nd/3rd
Sequence (P05177 whole entry): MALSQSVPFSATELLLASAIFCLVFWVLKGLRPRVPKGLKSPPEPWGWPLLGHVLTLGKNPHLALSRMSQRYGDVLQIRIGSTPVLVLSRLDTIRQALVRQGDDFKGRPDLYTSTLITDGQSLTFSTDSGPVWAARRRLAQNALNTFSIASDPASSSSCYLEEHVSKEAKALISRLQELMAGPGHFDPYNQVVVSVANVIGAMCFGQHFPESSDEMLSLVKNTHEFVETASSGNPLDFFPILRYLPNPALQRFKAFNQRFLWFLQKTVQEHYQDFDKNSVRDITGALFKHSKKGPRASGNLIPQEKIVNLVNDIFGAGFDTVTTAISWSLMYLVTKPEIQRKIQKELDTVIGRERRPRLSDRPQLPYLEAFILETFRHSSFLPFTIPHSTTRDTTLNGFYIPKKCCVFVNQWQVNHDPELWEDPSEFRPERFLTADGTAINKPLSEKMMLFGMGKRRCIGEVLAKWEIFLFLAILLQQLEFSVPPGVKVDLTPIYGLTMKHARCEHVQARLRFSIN
result.type: activity at 1 µM (%)
Give just the numeric value; % need not be written.

Inquiry: Request the reported activity at 1 µM associated with Cc1ccc(F)cc1C[C@H](C)Nc1cc[nH]c(=O)c1-c1nc2cc3c(cc2[nH]1)C(=O)N(CCN1CCCC1)C3
Reply text: 110

* * *

target: IGF1R (Homo sapiens); construct: 6×His- or GST-tagged kinase domain fragments of the corresponding RTKs expressed in baculovirus system; host or cells: baculovirus system; test: IGF1R kinase assay; format: biochemical; conditions: Table 1; read-out: IGF1R IC50
Listing of entries alongside the reported IC50.

- compound: "CC(Cc1ccsc1)Nc1cc[nH]c(=O)c1-c1nc2cc3c(cc2[nH]1)C(=O)N(CCCN1CCCC1)C3 (stereo not shown)"
  IC50: "250 to 1000 nM"
- compound: "C[C@@H](Cc1cc(F)cc(F)c1F)Nc1cc[nH]c(=O)c1-c1nc2cc3c(cc2[nH]1)CN(CCN1CCCC1)C3=O [drawing 327]"
  IC50: "250 to 1000 nM"
- compound: "Cc1ccc(CC(C)Nc2cc[nH]c(=O)c2-c2nc3cc4c(cc3[nH]2)C(=O)N(CCCN2CCCC2)C4)s1 (stereo not shown)"
  IC50: "100 to 250 nM"

Attention now shifts to the item below.
Inquiry: Identify the measured IC50 of CC(Cc1cc2ccccc2s1)Nc1cc[nH]c(=O)c1-c1nc2cc3c(cc2[nH]1)C(=O)N(CCCN1CCCC1)C3 (stereo not shown) for IGF1R (Homo sapiens).
Reply text: > 1000 nM
